- System: RXF 393 renal
- Test description: NCI tumour cell line growth inhibition, 48 h
TGI listing for selected molecules.

Some molecules with known TGI results, for comparison:
| Molecule | TGI |
| --- | --- |
| Oc1ccc2c(c1)-c1c(c3ccccc3n1CCN1CCOCC1)CC2 | > 100 µM |
| O=C(Nc1nc(C23CC4CC(CC(C4)C2)C3)cs1)c1cc2ccccc2oc1=O | > 100 µM |
| CCOC(=O)c1[nH]c(COC(C)=O)c2c1CCCCCCCCCC2 | > 100 µM |

In: I'd like to know its TGI. The molecule in question is `COC(=O)CC[C@H](Cc1ccccc1)NC(=O)c1csc([C@@H](C[C@H](C(C)C)N(C)C(=O)[C@@H](NC(=O)[C@H]2CCCCN2C)C(C)C)OC(C)=O)n1`
Out: > 25 µM

----------
- Tested on: SK-MEL-28 melanoma
- Test description: NCI tumour cell line growth inhibition, 48 h
TGI listing for selected compounds.

Some compounds with known TGI results, for comparison:
| Compound | TGI |
| --- | --- |
| CCN(CC)C(=O)C(C)n1cc(C)c(=O)[nH]c1=O (stereo not given) | > 100 µM |
| COc1cc2c(cc1OCCCC(=O)Nc1ccc3ccc4cccc5ccc1c3c45)N=C[C@@H]1CCCN1C2=O | < 0.01 µM |
| Nn1c(Cc2ccc([N+](=O)[O-])cc2)n[nH]c1=O | > 100 µM |
| COC(=O)CC[C@H](Cc1ccccc1)NC(=O)c1csc([C@@H](C[C@H](C(C)C)N(C)C(=O)[C@@H](NC(=O)[C@H]2CCCCN2C)C(C)C)OC(C)=O)n1 | > 25 µM |

Let us examine a further case.
In: Provide the documented TGI with SK-MEL-28 melanoma as the system for O=C1CSC(c2cccc([N+](=O)[O-])c2)N1c1ccc(-n2c(-c3ccccc3)nc3ccccc3c2=O)cc1 (stereo not given)
Out: > 100 µM

----------
- Tested on: MOLT-4 leukemia
- Test description: NCI tumour cell line growth inhibition, 48 h
TGI listing for selected compounds.

| Compound | Result |
| --- | --- |
| O=C(Nc1ccc([N+](=O)[O-])cc1Cl)c1cccc([N+](=O)[O-])c1O | 28.3 µM |
| O=C1CSC(c2cccc([N+](=O)[O-])c2)N1c1ccc(-n2c(-c3ccccc3)nc3ccccc3c2=O)cc1 (centres undefined) | > 100 µM |
| COc1ccc(C2ON(c3cccc(C)n3)CC=C2C)cc1 (centres undefined) | > 100 µM |

In: Provide the documented TGI with MOLT-4 leukemia as the system for `CCNC(=O)O[C@H]1CN[C@H](C#Cc2cc3ncnc(Nc4ccc(OCc5cccc(F)c5)c(Cl)c4)c3s2)C1`
Out: > 25 µM

In: Provide the documented TGI with MOLT-4 leukemia as the system for `COc1cc(-c2nc(SCCC(C)C)nc(Nc3ccc(S(N)(=O)=O)cc3)c2C#N)cc(OC)c1OC`
Out: > 100 µM

In: Provide the documented TGI with MOLT-4 leukemia as the system for CC1OC(n2cc(F)c(=O)[nH]c2=O)C=CC1=O (centres undefined)
Out: 69.3 µM

In: Provide the documented TGI with MOLT-4 leukemia as the system for `O=C1c2ccccc2S(=O)(=O)c2cc(-c3nn[nH]n3)ccc21`
Out: > 100 µM

In: Provide the documented TGI with MOLT-4 leukemia as the system for `Cc1cnc(C(=O)Nc2nc3ccc(S(=O)(=O)Nc4ccc(C5(C(F)(F)F)CC5)cc4)cc3[nH]2)cn1`
Out: 14.5 µM

In: Provide the documented TGI with MOLT-4 leukemia as the system for `NC(N)=NS(=O)(=O)c1ccc(NCCc2c3ccccc3nc3ccccc23)cc1`
Out: > 100 µM

Data provenance is PubChem BioAssay (NCI).
